experiment: Inhibition of recombinant NDM1 (unknown origin) expressed in Escherichia coli (DE3) cells using FC5 as substrate by microplate reader assay
Would you mind sorting the entries by IC50 according to these classes? lower (below 0.9 µM), middle (0.9 µM to below 30 µM), upper (30 µM or more)

COMPOUND: Nc1cccc(-c2cn(-c3cccc(C(c4ccc(-c5ccccc5)cc4)P(=O)(O)O)c3)nn2)c1 (configuration not stated)
ASSIGNED_LABEL: lower
--
COMPOUND: O=C(O)c1cccc(-n2cc(Cc3ccccc3)nn2)c1C(=O)O
ASSIGNED_LABEL: upper
--
COMPOUND: Nc1ccccc1-c1cn(-c2cccc(CP(=O)(O)O)c2)nn1
ASSIGNED_LABEL: middle
--
COMPOUND: O=P(O)(O)Cc1cccc(-n2cc(-c3ccccc3)nn2)c1
ASSIGNED_LABEL: middle
--
COMPOUND: O=C(O)c1cccc(-n2cc(-c3ccccc3)nn2)c1C(=O)O
ASSIGNED_LABEL: upper
--
COMPOUND: Cc1cccc(-c2cn(-c3ccc(CP(=O)(O)O)cc3)nn2)c1
ASSIGNED_LABEL: upper
--
COMPOUND: O=P(O)(O)Cc1cccc(-n2cc(CNc3ccccc3)nn2)c1
ASSIGNED_LABEL: middle
--
COMPOUND: Nc1cccc(-c2cn(-c3cccc(C(c4ccc(Br)cc4)P(=O)(O)O)c3)nn2)c1 (configuration not stated)
ASSIGNED_LABEL: lower
--
COMPOUND: Nc1ccc(-c2cn(-c3cccc(C(=O)O)c3C(=O)O)nn2)cc1
ASSIGNED_LABEL: upper
--
COMPOUND: CCCCc1cn(-c2cccc(C(=O)O)c2C(=O)O)nn1
ASSIGNED_LABEL: upper
--
COMPOUND: CSc1ccc(C(c2cccc(-n3cc(-c4cccc(N)c4)nn3)c2)P(=O)(O)O)cc1 (configuration not stated)
ASSIGNED_LABEL: lower
--
COMPOUND: Nc1cccc(-c2cn(-c3ccccc3CP(=O)(O)O)nn2)c1
ASSIGNED_LABEL: upper
--
COMPOUND: NCCN[C@H]1CC[C@H](CC(=O)N[C@H]2Cc3cccc(C(=O)O)c3OB2O)CC1
ASSIGNED_LABEL: lower
--
COMPOUND: O=C(O)c1ccc(-n2cc(-c3ccccc3)nn2)cc1C(=O)O
ASSIGNED_LABEL: upper
--
COMPOUND: O=C(O)c1cccc(-n2cc(CCO)nn2)c1C(=O)O
ASSIGNED_LABEL: upper
--
COMPOUND: O=P(O)(O)Cc1cccc(-n2cc(-c3ccc(F)cc3)nn2)c1
ASSIGNED_LABEL: middle
--
COMPOUND: O=P(O)(O)Cc1ccccc1-n1cc(-c2ccccc2)nn1
ASSIGNED_LABEL: upper
--
COMPOUND: O=[N+]([O-])c1ccc(Cn2cc(-c3cccc(B(O)O)c3)nn2)cc1
ASSIGNED_LABEL: upper
--
COMPOUND: NCc1cccc(-c2cn(-c3cccc(CP(=O)(O)O)c3)nn2)c1
ASSIGNED_LABEL: upper
--
COMPOUND: O=C(O)c1cccc(-n2cc(-c3cccc(Cl)c3)nn2)c1C(=O)O
ASSIGNED_LABEL: upper
--
COMPOUND: Nc1cccc(-c2cn(-c3cccc(CP(=O)(O)O)c3)nn2)c1
ASSIGNED_LABEL: middle
